Target: T1, recombinant human ROR1 extracellular domain (human, UniProt Q01973 30-406)
T1 construct: biotinylated for the filter lifts; also called huROR1-ECD; human ROR1-ECD
T1 sequence (Q01973 30-406 limits assumed): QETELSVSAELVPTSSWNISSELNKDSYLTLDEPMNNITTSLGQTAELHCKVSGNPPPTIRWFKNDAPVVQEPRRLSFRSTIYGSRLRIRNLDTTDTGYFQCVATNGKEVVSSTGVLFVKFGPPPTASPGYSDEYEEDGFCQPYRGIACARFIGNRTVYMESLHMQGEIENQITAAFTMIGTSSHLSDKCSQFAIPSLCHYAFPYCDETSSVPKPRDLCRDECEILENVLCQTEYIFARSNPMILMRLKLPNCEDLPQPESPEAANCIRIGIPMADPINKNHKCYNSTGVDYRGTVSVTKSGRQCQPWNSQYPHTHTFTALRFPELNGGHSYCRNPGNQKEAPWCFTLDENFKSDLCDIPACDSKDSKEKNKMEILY
Experiment: ELISA, soluble Fab on coated huROR1-ECD
Procedure: The previously described filter lift assay provides a visual, qualitative assessment of antigen binding (Example 1). In order to assess the ROR1 binding activity of Ab1 Fab in a more quantitative fashion, an ELISA assay was developed. A 96-well Costar-3366 plate was coated with 50 μL/well of 1 μg/mL human ROR1-ECD (ACROBiosystems, cat. #RO1-H522y) in PBS overnight at 4° C. […] The reaction was terminated by the addition of 2 N H2504 and the A450 was determined using a Spectramax plate reader.
readout.type: pKd
Just so you know, pKd here is -log10 of the concentration in molar units; reply with that number alone.

So what's the measured pKd for this one? Ab1 Fab variant H1 A33S (Fab, V domains shown, Fab) VH: QVQLQESGPGLVKPSQTLSLTCTVSGYAFTSYNIHWVRQAPGQGLEWMGSFDPYDGGSSYNQKFKDRLTISKDTSKNQVVLTMTNMDPVDTATYYCARGWYYFDYWGHGTLVTVSS VL: DIVMTQTPLSLPVTPGEPASISCRASKSISKYLAWYQQKPGQAPRLLIYSGSTLQSGIPPRFSGSGYGTDFTLTINNIESEDAAYYFCQQHDESPYTFGEGTKVEIK
7.96

More entries:
Entry Ab1 Fab variant L1 K29S (Fab, V domains shown, Fab) VH: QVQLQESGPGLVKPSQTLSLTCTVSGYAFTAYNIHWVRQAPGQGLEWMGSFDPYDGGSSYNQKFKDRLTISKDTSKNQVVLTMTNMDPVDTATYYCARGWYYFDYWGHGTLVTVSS VL: DIVMTQTPLSLPVTPGEPASISCRASSSISKYLAWYQQKPGQAPRLLIYSGSTLQSGIPPRFSGSGYGTDFTLTINNIESEDAAYYFCQQHDESPYTFGEGTKVEIK has what pKd?
9.05
